Experiment: qHTS assay to identify small molecule antagonists of the sonic hedgehog signaling (Shh) pathway (AID 1259369); further: nearly all actives have a fitted effect of over 45% in size
Settings: NIH/3T3 Gli1-Luc reporter, Shh antagonist, luminescence 24 h; series mostly up to 92.4 µM
Text: U.S. Tox21 Program National Center for Advancing Translational Sciences [NCATS] NIH Chemical Genomics Center [NCGC] U.S. Environmental Protection Agency [EPA] National Institutes of Environmental Health Sciences [NIEHS] National Toxicology Program [NTP] U.S. Food and Drug Administration [FDA] Tox21 Assay Overview: The sonic hedgehog (Shh) pathway is essential for normal embryonic development. Dysregulation of the Shh pathway can cause severe developmental defects in organs. […]
Inconclusive results are not listed. The source made the active and inactive calls. The call rests on the fitted dose curve.
Classes used: True for active, False for inactive

[[record]]
compound = "CCN(CCC#N)c1ccc(N=Nc2c(Cl)cc([N+](=O)[O-])cc2Cl)cc1"
classification = "False"

[[record]]
compound = "O=[N+]([O-])c1ccccc1Nc1ccccc1"
classification = "False"

[[record]]
compound = "Nc1c2ccccc2nc2ccccc12"
classification = "False"

[[record]]
compound = "Oc1ccc(C2(c3ccc(O)cc3)CC3CC2C2CCCC32)cc1 (configuration not stated)"
classification = "True"

[[record]]
compound = "CC(=O)OCC(C)OC(C)=O (configuration not stated)"
classification = "True"

[[record]]
compound = "CC(C)(C)C(=O)OCOC(=O)[C@@H]1N2C(=O)[C@@H](NC(=O)[C@H](N)c3ccccc3)[C@H]2SC1(C)C"
classification = "False"

[[record]]
compound = "CCCC(=O)OC[C@@H](OC(=O)CCC)[C@@H](OC(=O)CCC)[C@H](Cn1c2nc(=O)[nH]c(=O)c-2nc2cc(C)c(C)cc21)OC(=O)CCC"
classification = "True"

[[record]]
compound = "O=C(NO)C1(NS(=O)(=O)c2ccc(Oc3ccc(F)cc3)cc2)CCOCC1"
classification = "False"

[[record]]
compound = "CCCCCCCCCCCCc1ccc(O)cc1"
classification = "False"

[[record]]
compound = "Cc1cc(O)c2ccccc2c1O"
classification = "True"

[[record]]
compound = "CCN(Cc1cccnc1)C(=O)c1cccc(Cl)c1[C@]1(C)C(=O)N(Cc2ccc(OC)cc2OC)c2ccc(Cl)cc21"
classification = "True"

[[record]]
compound = "Cc1cc(O)c(C(C)(C)C)cc1Sc1cc(C(C)(C)C)c(O)cc1C"
classification = "True"


###

target: Nuclear receptor subfamily 1 group I member 3 (Homo sapiens); assay: qHTS assay to identify small molecule antagonists of the constitutive androstane receptor (CAR) signaling pathway (AID 1224838); conditions: HepG2-CYP2B6-hCAR luciferase, CITCO-stimulated, 24 h; series mostly up to 92.4 µM;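 further: HepG2 cells stably expressing hCAR with CYP2B6 luciferase reporter stimulated by CITCO; nearly all actives have a fitted effect of over 40% in size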
Inconclusive results are not listed. Calls of active or inactive are those of the source. The call rests on the fitted dose curve; in most records, active means well fitted inhibition curve with a large enough effect in the repeat runs; inconclusive means weak or mixed curves, or effect the other way; inactive means no such curve, though single readings can be large or run the other way.
Outcomes: class 1 (active), class 0 (inactive)

[[record]]
smiles_str = "CCCCCCCCCCn1cc[n+](CCCCCCCCCC)c1C"
classification = "class 1"

[[record]]
smiles_str = "N=C1N=C(N)c2ccccc21"
classification = "class 1"

[[record]]
smiles_str = "COc1ccc(C(=O)/C(Br)=C\\C(=O)O)cc1"
classification = "class 0"

[[record]]
smiles_str = "OCCN(CCO)c1nc(N2CCCCC2)c2nc(N(CCO)CCO)nc(N3CCCCC3)c2n1"
classification = "class 0"

[[record]]
smiles_str = "Nc1ccccc1O"
classification = "class 0"

[[record]]
smiles_str = "Clc1ccc2n[nH]nc2c1"
classification = "class 0"

[[record]]
smiles_str = "Oc1cccc(-c2c3nc(c(-c4cccc(O)c4)c4ccc([nH]4)c(-c4cccc(O)c4)c4nc(c(-c5cccc(O)c5)c5ccc2[nH]5)CC4)C=C3)c1"
classification = "class 0"

[[record]]
smiles_str = "CCCCCCCC(=O)[O-].CCCCCCCC(=O)[O-].[Zn+2]"
classification = "class 0"


###

experiment: qHTS assay for small molecules that induce genotoxicity in human embryonic kidney cells expressing luciferase-tagged ATAD5 (AID 651632); settings: HEK293T ATAD5-luciferase induction, 16 h; series mostly up to 83.3 µM; further: nearly all actives have a fitted effect of over 15% in size
Results filed as inconclusive are left out. Active and inactive are the calls of the source. Calls come from the whole dose curve; as a rule, active = well fitted activation curve with a large enough effect in the repeat runs; inconclusive = weak or mixed curves; inactive = no such curve, though single readings can be large or run the other way.
Possible outcomes: active, inactive

[[record]]
smiles_str = "CCCCCCCC[P+](CCCCCCCC)(CCCCCCCC)CCCCCCCC"
classification = "inactive"

[[record]]
smiles_str = "NNc1nc(-c2ccccc2)cs1"
classification = "inactive"

[[record]]
smiles_str = "Cc1[nH]nc2c1N=C(c1ccccc1Cl)c1cc([N+](=O)[O-])ccc1N2"
classification = "active"

[[record]]
smiles_str = "Cc1cc(O)c(C(C)(C)C)cc1Sc1cc(C(C)(C)C)c(O)cc1C"
classification = "inactive"

[[record]]
smiles_str = "N=C1C=CC(=C(c2ccc(N)cc2)c2ccc(N)cc2)C=C1"
classification = "inactive"

[[record]]
smiles_str = "CC(C)=CCOc1ccc(/C=C/C(=O)c2ccc(OCC=C(C)C)cc2OCC(=O)O)cc1"
classification = "inactive"

[[record]]
smiles_str = "CC[C@H]1O[C@]2(CC[C@@H]1C)C[C@@H]1C[C@@H](C/C=C(\\C)C[C@@H](C)/C=C/C=C3\\CO[C@@H]4[C@H](O)C(C)=C[C@@H](C(=O)O1)[C@]34O)O2"
classification = "inactive"

[[record]]
smiles_str = "O=C(Nc1cccc(C(F)(F)F)c1)c1cc(Br)cc(Br)c1O"
classification = "inactive"

[[record]]
smiles_str = "COc1cccc2c1C(=O)c1c(O)c3c(c(O)c1C2=O)C[C@@](O)(C(=O)CO)C[C@@H]3O[C@H]1C[C@H](N)[C@H](O[C@@H]2CCCCO2)[C@H](C)O1"
classification = "active"

[[record]]
smiles_str = "Cc1c(C)c2c(c(C)c1OC(=O)CCC(=O)O)CC[C@@](C)(CCC[C@H](C)CCC[C@H](C)CCCC(C)C)O2"
classification = "inactive"

[[record]]
smiles_str = "C[n+]1ccn(Cc2ccccc2)c1"
classification = "inactive"

[[record]]
smiles_str = "CCCCCCCCn1sc(Cl)c(Cl)c1=O"
classification = "inactive"


###

assay: qHTS assay to identify small molecule antagonists of the estrogen receptor alpha (ER-alpha) signaling pathway using the BG1 cell line - cell viability counter screen (AID 743081); conditions: BG1Luc4E2 viability, CellTiter-Fluor, 22 h; series mostly up to 70.3 µM;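 further: compound given together with 17beta-estradiol as the ER stimulus; nearly all actives have a fitted effect of over 45% in size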
Records with an inconclusive call do not appear. The source made the active and inactive calls. Calls come from the whole dose curve; as a rule, active = well fitted cell-killing curve with a large enough effect in the repeat runs; inconclusive = weak or mixed curves, or effect the other way; inactive = flat fitted curve, though single readings scatter.
Possible outcomes: active, inactive

[[record]]
smiles_str = "CCCCN(CCCC)C(=O)N(CCCC)CCCC"
classification = "inactive"

[[record]]
smiles_str = "Cn1cc(C(=O)[C@@H]2CCc3nc[nH]c3C2)c2ccccc21"
classification = "inactive"

[[record]]
smiles_str = "O=c1c(-c2ccccc2)c1-c1ccccc1"
classification = "inactive"

[[record]]
smiles_str = "NNc1nc(-c2ccc([N+](=O)[O-])cc2)cs1"
classification = "active"

[[record]]
smiles_str = "CCCCCCCCCCCCCCCC[N+](C)(C)CCN(Cc1ccc(OC)cc1)c1ncccn1"
classification = "inactive"

[[record]]
smiles_str = "CC[C@H]1O[C@]2(CC[C@@H]1C)C[C@@H]1C[C@@H](C/C=C(\\C)C[C@@H](C)/C=C/C=C3\\CO[C@@H]4[C@H](O)C(C)=C[C@@H](C(=O)O1)[C@]34O)O2"
classification = "active"

[[record]]
smiles_str = "OC1(c2ccc(Cl)c(C(F)(F)F)c2)CCN(CCCC(c2ccc(F)cc2)c2ccc(F)cc2)CC1"
classification = "inactive"

[[record]]
smiles_str = "CCN(CCC#N)c1ccc(N=Nc2c(Cl)cc([N+](=O)[O-])cc2Cl)cc1"
classification = "active"

[[record]]
smiles_str = "O=C1C=CC(=O)N1c1ccc(Cc2ccc(N3C(=O)C=CC3=O)cc2)cc1"
classification = "inactive"

[[record]]
smiles_str = "O=C(Nc1ccc(Oc2ccc(Cl)cc2)c(Cl)c1)c1cc(I)cc(I)c1O"
classification = "inactive"

[[record]]
smiles_str = "O=S1(=O)CC(Cl)(Cl)C(Cl)(Cl)C1"
classification = "active"

[[record]]
smiles_str = "C=C(C)C(=O)OCC[N+](C)(C)C"
classification = "inactive"

[[record]]
smiles_str = "CCCCN(CCCC)c1ccc(C(=O)c2ccccc2C(=O)O)c(O)c1"
classification = "inactive"

[[record]]
smiles_str = "CCc1cc(Cc2cc(CC)cc(C(C)(C)C)c2O)c(O)c(C(C)(C)C)c1"
classification = "active"

[[record]]
smiles_str = "C1CCCC1"
classification = "inactive"

[[record]]
smiles_str = "CO[Si](CCCNc1ccccc1)(OC)OC"
classification = "inactive"


###

experiment: qHTS assay to identify small molecule antagonists of the glucocorticoid receptor (GR) signaling pathway - cell viability counter screen (AID 720693); settings: GR-bla HeLa viability, CellTiter-Glo luminescence, 18 h, with 5 nM dexamethasone present; series mostly up to 58.5 µM; further: nearly all actives have a fitted effect of over 55% in size
Records with an inconclusive call do not appear. Active and inactive are the calls of the source. The call rests on the fitted dose curve; in most records, active means well fitted cell-killing curve with a large enough effect in the repeat runs; inconclusive means weak or mixed curves, or effect the other way; inactive means no such curve, though single readings can be large or run the other way.
ASSAY_METRIC: outcome

[[record]]
smiles_str = "CC[C@@]1(O)C(=O)OCc2c1cc1n(c2=O)Cc2cc3c(CN(C)C)c(O)ccc3nc2-1"
val = "inactive"

[[record]]
smiles_str = "O=C(Oc1cccc2cccnc12)c1ccccc1"
val = "inactive"

[[record]]
smiles_str = "COc1ccc(CN2CCN(C(c3ccc(F)cc3)c3ccc(F)cc3)CC2)c(OC)c1OC"
val = "inactive"

[[record]]
smiles_str = "NC(=O)CC[C@@H]1NC(=O)[C@H](Cc2ccccc2)NC(=O)[C@H](Cc2ccc(O)cc2)NC(=O)CCSSC[C@@H](C(=O)N2CCC[C@H]2C(=O)N[C@@H](CCCN=C(N)N)C(=O)NCC(N)=O)NC(=O)[C@H](CC(N)=O)NC1=O"
val = "inactive"

[[record]]
smiles_str = "C=C(C)C(=O)OCC[N+](C)(C)C"
val = "inactive"

[[record]]
smiles_str = "O=C(OCC(COC(=O)c1ccccc1)(COC(=O)c1ccccc1)COC(=O)c1ccccc1)c1ccccc1"
val = "inactive"

[[record]]
smiles_str = "Clc1ccc2nsnc2c1NC1=NCCN1"
val = "inactive"

[[record]]
smiles_str = "C/C=C(\\C)C(=O)OCc1ccccc1"
val = "inactive"

[[record]]
smiles_str = "CN1CCC(Nc2ncc3ncnc(Nc4ccc(F)c(Cl)c4)c3n2)CC1"
val = "inactive"

[[record]]
smiles_str = "O=Cc1cc(O)ccc1Br"
val = "inactive"

